Tested on: SF-539 CNS
MEASUREMENT_DESCRIPTION: NCI-60 one-dose screen, 48 h
CONDITION_DESCRIPTION: 10 µM unless noted
The panel holds about 83,000 compounds, 20% with a hit somewhere; the sample as a whole holds those more often. Calls of active or inactive are those of the source. The calls were made as follows: active = growth percent below 10; inactive = the rest.
Labels: 1.0 (active), 0.0 (inactive)

- N#Cc1c(-c2ccc(Br)cc2)nc2c(N=Nc3ccc(S(N)(=O)=O)cc3)c(N)nn2c1N: 0.0
- COc1cc(/C=N/NC(=O)c2ccc(-n3cc(-c4ccccc4)nn3)cc2)cc(OC)c1OC: 0.0
- O=C(Nc1ccc(Nc2ccncc2)cc1)c1ccc(Nc2ccnc3ccc([N+](=O)[O-])cc23)cc1: 0.0
- CC1(C)N=C(N)N=C(N)N1c1ccc(S(=O)(=O)Nc2nccs2)cc1: 0.0
- CN1CCN(c2ccc(NC3=CC(=O)c4ncncc4C3=O)cc2)CC1: 1.0
- CC(C)NS(=O)(=O)/N=C1\NC(=O)NC1=C(Cl)Cl: 0.0
- Cc1nc([P+](c2ccccc2)(c2ccccc2)c2ccccc2)c(N2CCCCC2)o1: 0.0
- O=C(Cn1nc(-c2cccc3ccccc23)ccc1=O)NCc1cccc(Cl)c1: 0.0
- C=C1C(=O)O[C@H]2[C@H]1CC/C(COC(=O)C(=O)c1c[nH]c3ccc(Cl)cc13)=C\CC[C@@]1(C)O[C@@H]21: 1.0
